Molecular target: p110δ/p85α (Homo sapiens (Human))
Sequence (O00329 whole entry): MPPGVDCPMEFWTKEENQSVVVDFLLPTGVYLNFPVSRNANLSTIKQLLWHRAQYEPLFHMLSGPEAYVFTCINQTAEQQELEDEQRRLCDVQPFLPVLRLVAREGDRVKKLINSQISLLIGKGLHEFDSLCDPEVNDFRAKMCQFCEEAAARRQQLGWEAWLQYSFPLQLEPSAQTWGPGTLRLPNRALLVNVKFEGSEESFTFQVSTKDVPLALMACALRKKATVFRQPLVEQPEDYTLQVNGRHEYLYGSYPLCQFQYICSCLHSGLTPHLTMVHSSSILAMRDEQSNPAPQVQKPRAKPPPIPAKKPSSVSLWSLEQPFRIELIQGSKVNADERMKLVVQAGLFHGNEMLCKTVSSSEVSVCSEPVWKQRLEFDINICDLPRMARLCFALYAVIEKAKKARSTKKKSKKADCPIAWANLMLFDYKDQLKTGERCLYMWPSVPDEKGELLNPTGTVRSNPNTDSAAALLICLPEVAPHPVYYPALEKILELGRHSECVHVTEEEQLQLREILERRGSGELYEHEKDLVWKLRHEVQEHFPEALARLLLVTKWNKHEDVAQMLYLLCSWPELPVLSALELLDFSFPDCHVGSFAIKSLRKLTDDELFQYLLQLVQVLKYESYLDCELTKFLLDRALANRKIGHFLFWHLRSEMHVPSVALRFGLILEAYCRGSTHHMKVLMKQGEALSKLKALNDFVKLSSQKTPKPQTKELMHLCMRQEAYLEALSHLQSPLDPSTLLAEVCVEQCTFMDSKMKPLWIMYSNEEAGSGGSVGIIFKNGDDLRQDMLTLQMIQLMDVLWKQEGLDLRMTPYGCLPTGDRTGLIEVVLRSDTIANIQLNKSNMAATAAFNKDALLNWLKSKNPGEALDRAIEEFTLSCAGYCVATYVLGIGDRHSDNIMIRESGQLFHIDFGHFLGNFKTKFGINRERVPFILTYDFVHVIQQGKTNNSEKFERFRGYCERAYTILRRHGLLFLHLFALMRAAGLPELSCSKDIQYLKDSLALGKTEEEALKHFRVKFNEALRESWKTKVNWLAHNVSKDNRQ
Sequence (P27986 whole entry partner): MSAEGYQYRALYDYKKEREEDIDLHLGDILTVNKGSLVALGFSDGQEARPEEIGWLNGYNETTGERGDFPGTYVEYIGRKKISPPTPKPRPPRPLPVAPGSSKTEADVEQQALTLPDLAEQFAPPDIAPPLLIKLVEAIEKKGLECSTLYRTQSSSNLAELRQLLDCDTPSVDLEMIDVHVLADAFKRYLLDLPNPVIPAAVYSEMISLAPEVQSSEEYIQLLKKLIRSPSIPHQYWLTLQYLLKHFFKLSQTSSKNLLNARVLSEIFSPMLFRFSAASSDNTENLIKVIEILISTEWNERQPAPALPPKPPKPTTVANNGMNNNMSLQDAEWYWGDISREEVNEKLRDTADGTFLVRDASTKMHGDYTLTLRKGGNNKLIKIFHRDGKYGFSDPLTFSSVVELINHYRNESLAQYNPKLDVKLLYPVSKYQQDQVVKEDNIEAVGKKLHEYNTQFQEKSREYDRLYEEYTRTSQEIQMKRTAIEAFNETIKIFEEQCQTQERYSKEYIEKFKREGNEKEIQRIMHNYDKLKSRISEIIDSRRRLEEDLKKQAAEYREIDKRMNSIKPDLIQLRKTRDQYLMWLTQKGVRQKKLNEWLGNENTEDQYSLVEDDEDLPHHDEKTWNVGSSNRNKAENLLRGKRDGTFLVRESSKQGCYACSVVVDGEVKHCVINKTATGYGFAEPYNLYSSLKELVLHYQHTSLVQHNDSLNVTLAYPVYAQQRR
Assay: PI 3-Kinase (human) HTRF assay, p110δ/p85α
Format: biochemical
Details: read-out: PI3K δ IC50
pIC50: −log10 of the molar value.
Provide the recorded pIC50 for the entries that follow.

Challenge: Suppose we examine the compound `Nc1nc2cc(-c3ccc4nccc(CCN5CCOCC5)c4c3)ccc2o1` ; what pIC50 value has been reported?
Response given: > 5.00

Challenge: Suppose we examine the compound `CN1CCC(Nc2cnc3ccc(-c4ccc5oc(N)nc5c4)cc3n2)CC1` ; what pIC50 value has been reported?
Response given: > 7.00

Challenge: Suppose we examine the compound `CN1CCC(n2cnc3ccc(-c4ccc5oc(N)nc5c4)cc3c2=O)CC1` ; what pIC50 value has been reported?
Response given: > 5.00

Challenge: Suppose we examine the compound `CCNC(=O)c1cnc2ccc(-c3ccc4oc(N)nc4c3)cn12` ; what pIC50 value has been reported?
Response given: > 6.00

Challenge: Suppose we examine the compound `Nc1nc2cc(-c3ccc4ncc(-c5ccncc5)n4c3)ccc2o1` ; what pIC50 value has been reported?
Response given: > 6.00

Challenge: Suppose we examine the compound `CC(C)(C)N1CCN(c2cnc3ccc(-c4ccc5oc(N)nc5c4)cc3n2)CC1` ; what pIC50 value has been reported?
Response given: > 6.00

Challenge: Suppose we examine the compound CC1CN(c2cnc3ccc(-c4ccc5oc(N)nc5c4)cc3n2)CCN1 (stereo not drawn) ; what pIC50 value has been reported?
Response given: > 5.00

Challenge: Suppose we examine the compound `Nc1nc2cc(-c3ccc4ncc(-c5ccncc5)nc4c3)ccc2o1` ; what pIC50 value has been reported?
Response given: > 6.00

Challenge: Suppose we examine the compound `Nc1nc2cc(-c3ccc4nccc(NCCN5CCOCC5)c4c3)ccc2o1` ; what pIC50 value has been reported?
Response given: > 6.00

From: patent US11547697B2
